Read-out record for UniProtKB Q9Y5N1: AC50
Sequence (Q9Y5N1 whole entry): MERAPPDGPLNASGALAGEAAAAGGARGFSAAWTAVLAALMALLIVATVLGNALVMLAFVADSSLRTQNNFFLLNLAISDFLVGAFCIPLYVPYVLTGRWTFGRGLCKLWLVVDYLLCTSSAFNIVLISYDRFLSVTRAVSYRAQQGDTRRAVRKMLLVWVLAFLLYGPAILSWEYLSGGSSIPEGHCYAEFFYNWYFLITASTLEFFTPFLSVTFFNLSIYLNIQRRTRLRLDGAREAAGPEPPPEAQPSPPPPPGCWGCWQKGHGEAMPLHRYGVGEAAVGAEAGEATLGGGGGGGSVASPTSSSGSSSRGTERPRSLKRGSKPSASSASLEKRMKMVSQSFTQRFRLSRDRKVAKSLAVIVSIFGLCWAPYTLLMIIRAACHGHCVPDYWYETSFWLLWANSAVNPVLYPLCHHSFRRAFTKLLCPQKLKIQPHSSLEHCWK

Below, each entry is followed by its recorded AC50 result.
>>> result("CCC(C)(Oc1ccc(C2(c3ccc(OC(C)(CC)C(=O)O)cc3)CCCCC2)cc1)C(=O)O (stereo not drawn) [CLINOFIBRATE]")
"> 30 µM"
>>> result("O=C(CCCN1CCC(n2c(O)nc3ccccc32)CC1)c1ccc(F)cc1")
"18 µM"
>>> result("CCN(CC)C(=O)C1(c2ccccc2)CC1CN (stereo not drawn)")
"> 30 µM"
>>> result("CC(C)OC(=O)C(C(=O)OC(C)C)=C1SC=CS1 [MALOTILATE]")
"> 30 µM"
>>> result("COCCOC(=O)C1=C(C)NC(C)=C(C(=O)OC/C=C/c2ccccc2)C1c1cccc([N+](=O)[O-])c1 (stereo not drawn)")
"> 30 µM"

For every record below, what is its AC50?
1. CCCOC(C(=O)OC1CCN(C)CC1)(c1ccccc1)c1ccccc1
2. N#C[C@@H]1CCCN1C(=O)CNC12CC3CC(CC(O)(C3)C1)C2
3. N=C(N)NCCCCCCC(=O)NC(O)C(=O)NCCCCNCCCN (stereo not drawn)
4. Cc1ccc(NC(=O)C2(c3ccc4c(c3)OC(F)(F)O4)CC2)nc1-c1cccc(C(=O)O)c1
5. CC(NCCc1ccc(O)cc1)C(O)c1ccc(O)cc1 (stereo not drawn)
6. C[C@@H]1CCC[C@H](C)N1NC(=O)c1ccc(Cl)c(S(N)(=O)=O)c1 [CLOPAMIDE]
7. CCOC(=O)Nc1ccc2c(c1)N(C(=O)CCN1CCOCC1)c1ccccc1S2

Result:
1: > 30 µM; 2: > 10 µM; 3: > 30 µM; 4: > 30 µM; 5: > 30 µM; 6: > 30 µM; 7: > 30 µM

Please give AC50, item by item, for the list that follows.
1. NCCCC(O)(P(=O)(O)O)P(=O)(O)O
2. CCCCC1(CC)C(=O)NC(=O)NC1=O

Result:
["> 10 µM", "> 30 µM"]

Lab note: each molecule below needs its AC50 filled in.
1. CCN(CC)CCOC(=O)c1ccc(N)cc1Cl
2. COc1c(O[C@@H]2O[C@H](CO)[C@@H](O)[C@H](O)[C@H]2O)cc2c(c1OC)-c1ccc(SC)c(=O)cc1[C@@H](NC(C)=O)CC2 [THIOCOLCHICOSIDE]
3. Nc1nc(F)nc2c1ncn2[C@@H]1O[C@H](COP(=O)(O)O)[C@@H](O)[C@@H]1O [FLUDARABINE PHOSPHATE]
4. CC[C@H]1OC(=O)[C@H](C)[C@@H](O[C@H]2C[C@@](C)(OC)[C@@H](O)[C@H](C)O2)[C@H](C)[C@@H](O[C@@H]2O[C@H](C)C[C@H](N(C)C)[C@H]2O)[C@](C)(O)C[C@@H](C)/C(=N\OCOCCOC)[C@H](C)[C@@H](O)[C@]1(C)O
5. CC[N+]1(C)CCCC(OC(=O)C(O)(c2ccccc2)c2ccccc2)C1 (stereo not drawn) [PIPENZOLATE]
6. Cn1c(=O)c2[nH]cnc2n(C)c1=O
7. CC(C)=CCOc1ccc(/C=C/C(=O)c2ccc(OCC=C(C)C)cc2OCC(=O)O)cc1
8. [H]/N=C(/N)N[C@H]1[C@H](O)[C@@H](O)[C@H](O[C@@H]2O[C@@H](C)[C@](O)(C=O)[C@H]2O[C@@H]2O[C@@H](CO)[C@H](O)[C@@H](O)[C@@H]2NC)[C@@H](N/C(N)=N\[H])[C@@H]1O

Result:
4 µM
> 30 µM
> 30 µM
> 30 µM
> 30 µM
> 10 µM
> 30 µM
> 30 µM

Parameter requested: AC50. Apply to each item below.
1. CCN(CC)C(=O)C1CN2CCc3cc(OC)c(OC)cc3C2CC1OC(C)=O (stereo not drawn) [BENZQUINAMIDE]
2. CC1(C)S[C@@H]2[C@H](NC(=O)[C@H](N)c3ccc(O)cc3)C(=O)N2[C@H]1C(=O)O
3. CCN(CC)CC(=O)Oc1ccc(NC(C)=O)cc1
4. CC(C)CC(N(C)C)C1(c2ccc(Cl)cc2)CCC1 (stereo not drawn)
5. COc1ccnc(C[S+]([O-])c2nc3ccc(OC(F)F)cc3[nH]2)c1OC (stereo not drawn)
6. COc1ccc(Cc2nccc3cc(OC)c(OC)cc23)cc1OC

Result:
> 30 µM
> 30 µM
> 30 µM
> 10 µM
> 10 µM
> 30 µM
